Target: PI3Kγ (p110γ) Recombinant Human Protein (Homo sapiens (Human), UniProt P48736)
Sequence (P48736 whole entry): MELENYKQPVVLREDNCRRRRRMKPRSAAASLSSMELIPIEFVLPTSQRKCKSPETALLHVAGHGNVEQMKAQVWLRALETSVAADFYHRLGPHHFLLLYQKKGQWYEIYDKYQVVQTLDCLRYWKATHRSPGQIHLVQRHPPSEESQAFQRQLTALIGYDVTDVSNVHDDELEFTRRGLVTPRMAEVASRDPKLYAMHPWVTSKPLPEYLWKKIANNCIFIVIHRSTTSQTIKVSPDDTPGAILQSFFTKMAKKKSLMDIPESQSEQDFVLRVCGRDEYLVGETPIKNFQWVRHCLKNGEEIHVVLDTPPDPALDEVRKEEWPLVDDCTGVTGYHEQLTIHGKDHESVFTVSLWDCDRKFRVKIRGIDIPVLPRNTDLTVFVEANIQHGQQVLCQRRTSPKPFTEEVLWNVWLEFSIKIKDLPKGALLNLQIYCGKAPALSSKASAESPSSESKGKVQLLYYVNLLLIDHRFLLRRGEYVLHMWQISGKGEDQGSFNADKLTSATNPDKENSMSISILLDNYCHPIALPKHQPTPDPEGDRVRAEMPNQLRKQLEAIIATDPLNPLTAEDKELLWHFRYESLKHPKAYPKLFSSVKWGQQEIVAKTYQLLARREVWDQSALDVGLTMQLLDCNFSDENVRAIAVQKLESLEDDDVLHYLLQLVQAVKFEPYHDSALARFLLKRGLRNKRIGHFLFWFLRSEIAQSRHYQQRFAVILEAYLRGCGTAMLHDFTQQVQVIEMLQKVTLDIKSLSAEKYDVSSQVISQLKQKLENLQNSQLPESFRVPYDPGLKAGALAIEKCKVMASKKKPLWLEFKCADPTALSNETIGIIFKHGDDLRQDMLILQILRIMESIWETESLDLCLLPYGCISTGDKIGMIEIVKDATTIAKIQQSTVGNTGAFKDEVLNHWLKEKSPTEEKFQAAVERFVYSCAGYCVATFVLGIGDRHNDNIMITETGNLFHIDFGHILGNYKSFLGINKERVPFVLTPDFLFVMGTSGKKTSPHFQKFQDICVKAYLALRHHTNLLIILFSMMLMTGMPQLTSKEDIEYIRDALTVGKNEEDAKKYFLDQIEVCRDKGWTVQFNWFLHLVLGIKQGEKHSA
Assay: PI3K-γ scintillation proximity assay
Conditions: 2 μM ATP, 20 μM PIP2
pIC50: −log10 of the molar value. Where a name gives a salt, the structure may show the parent alone.
Consider the following molecules; for each one, report its pIC50.

{"columns": ["molecule", "pIC50"],
 "data": [
  ["CC(NC(=O)c1c(N)nn2cccnc12)c1cc(Cl)c2cncn2c1-c1cc[nH]n1 (racemic) [Example 130, trifluoroacetate salt]", "> 7.00"],
  ["CNC(=O)C1CCN(c2c(C(C)NC(=O)c3c(N)nn4cccnc34)cc(Cl)c3cn[nH]c23)CC1 (stereo not shown) [Example 107, trifluoroacetate]", "> 7.00"],
  ["COC(=O)C1CCN(c2c(C(C)NC(=O)c3c(N)nn4cccnc34)cc(Cl)c3cn[nH]c23)C1 (stereo not shown) [Example 102, trifluoroacetate]", "> 7.00"]
]}

I'm hoping you can list pIC50 for every molecule here, please.
1. CC(NC(=O)c1c(N)nn2cccnc12)c1cc(Cl)c2cncn2c1N1CCCC1 (racemic) [Example 142, trifluoroacetate salt]
2. COc1c(C(C)NC(=O)c2c(N)nn3cccnc23)cc(Cl)c2cn[nH]c12 (stereo not shown) [Example 82, trifluoroacetate]
3. Nc1nn2cccnc2c1C(=O)NC(c1cc(Cl)c2cncn2c1N1CCS(=O)(=O)CC1)C1CC1 (racemic) [Example 182, trifluoroacetate salt]

-- reply
["> 7.00", "> 7.00", "> 7.00"]

Hi team, please reply with pIC50 for each item in this list.
1. CC(NC(=O)c1c(N)nn2cccnc12)c1cc(Cl)c2cn[nH]c2c1OCCO (stereo not shown) [Example 84, trifluoroacetate]
2. CC(NC(=O)c1c(N)nn2cccnc12)c1cc(Cl)c2cn[nH]c2c1OC(F)F (stereo not shown) [Example 83, trifluoroacetate]
3. CC(NC(=O)c1c(N)nn2cccnc12)c1cc(Cl)c2c(Cl)ncn2c1N1CCS(=O)(=O)CC1 (racemic) [Example 162, trifluoroacetate salt]
4. CC(NC(=O)c1c(N)nn2cccnc12)c1cc(Cl)c2ccnn2c1N1CCNS(=O)(=O)CC1 (stereo not shown) [Example 110, trifluoroacetate]
5. CC(NC(=O)c1c(N)nn2cccnc12)c1cc(Cl)c2cncn2c1-c1cccnc1 (racemic) [Example 127, trifluoroacetate salt]

-- reply
1: > 7.00; 2: > 7.00; 3: > 7.00; 4: > 7.00; 5: > 7.00

Working through the 6 molecules below one at a time, give pIC50 for each.
1. CC(NC(=O)c1c(N)nn2cccnc12)c1cc(Cl)c2cncn2c1N1CCCC(C)(O)C1 (single isomer, unassigned) [Example 76B, trifluoroacetate]
2. CC(NC(=O)c1c(N)nn2cccnc12)c1cc(Cl)c2cncn2c1C1CCCC1 (stereo not shown) [Example 62, trifluoroacetate]
3. CC(NC(=O)c1c(N)nn2cccnc12)c1cc(Cl)c2nncn2c1-c1ccccc1 (racemic) [Example 185, trifluoroacetate salt]
4. CC(NC(=O)c1c(N)nn2cccnc12)c1cc(Cl)c2c(C#N)ncn2c1N1CCS(=O)(=O)CC1 (racemic) [Example 164, trifluoroacetate salt]
5. CC(NC(=O)c1c(N)nn2cccnc12)c1cc(Cl)c2cncn2c1N1C[C@@H](O)C[C@@H](F)C1 (stereo partly shown) [Example 156, trifluoroacetate salt]
6. CC(NC(=O)c1c(N)nn2cccnc12)c1cc(Cl)c2cnnn2c1-c1ccccc1 (stereo not shown) [Example 63, trifluoroacetate]

-- reply
1: > 7.00; 2: > 7.00; 3: > 6.30; 4: > 7.00; 5: > 7.00; 6: > 6.30

Need pIC50 for each of these molecules.
1. CC(NC(=O)c1c(N)nn2cccnc12)c1cc(Cl)c2ccnn2c1-c1cccnc1 (stereo not shown) [Example 59, trifluoroacetate]
2. CC(NC(=O)c1c(N)nn2cccnc12)c1cc(Cl)c2cn[nH]c2c1OCCCN (stereo not shown) [Example 64, bis(trifluoroacetate)]
3. CC(NC(=O)c1c(N)nn2cccnc12)c1cc(Cl)c2cncn2c1N1CCC(C)(C#N)CC1 (stereo not shown) [Example 88, trifluoroacetate]
4. CCOc1c(C(C)NC(=O)c2c(N)nn3cccnc23)cc(Cl)c2c(Br)nn(CCO)c12 (stereo not shown) [Example 54]
5. CC(NC(=O)c1c(N)nn2cccnc12)c1cc(Cl)c2cncn2c1N1CCCC(O)(C(F)(F)F)C1 (single isomer, unassigned) [Example 78B, trifluoroacetate]
6. CC(NC(=O)c1c(N)nn2cccnc12)c1cc(Cl)c2cncn2c1N1CCCC(F)C1 (single isomer, unassigned) [Example 73B]

-- reply
1: > 7.00; 2: > 6.30; 3: > 7.00; 4: > 7.00; 5: > 7.00; 6: > 7.00

Give pIC50 for all molecules that follow.
1. CC1CN(c2c(C(NC(=O)c3c(N)nn4cccnc34)C3CC3)cc(Cl)c3c(C#N)ncn23)CCS1(=O)=O (stereo not shown) [Example 176, trifluoroacetate salt]
2. COC1CCN(c2c(C(C)NC(=O)c3c(N)nn4cccnc34)cc(Cl)c3cncn23)C1 (stereo not shown) [Example 144, trifluoroacetate salt]

-- reply
1: > 7.00; 2: > 7.00
